assayInfo: Cytotoxicity assay, MTT method
Format: cell-based
experimentalParameters: mouse, fibroblast L929 cell line, 24 h of exposure
assayMetric: IC50 at 24 h (µM)

INSERT INTO measurements (compoundstructurestring, assaymetric, measureunit, quantitativereadout) VALUES
  ('Clc1cccc(NN=Cc2c[nH]c3ccccc23)c1', 'IC50 at 24 h', 'µM', 33.9),
  ('Clc1ccc(N/N=C/c2c[nH]c3ccccc23)cc1', 'IC50 at 24 h', 'µM', 66.7);

###

assayInfo: Cytotoxicity assay, MTT method
Type: cell-based
experimentalParameters: mouse, L929 fibroblast cells, fibroblast L929 cell line, 24 h of exposure
assayMetric: IC50 at 24 h

INSERT INTO assay_data (compound, result) VALUES
  ('Cc1ccccc1NN=Cc1c[nH]c2ccccc12', '85.1 µM'),
  ('Brc1ccc(N/N=C/c2c[nH]c3ccccc23)cc1', '59.8 µM'),
  ('C(=NNc1ccccc1)c1c[nH]c2ccccc12 [1a, indole-3-carboxaldehyde phenylhydrazone]', '> 100 µM'),
  ('O=C(NN=Cc1c[nH]c2ccc(Cl)cc12)c1cccc(Cl)c1', '55.5 µM'),
  ('O=C(NN=Cc1c[nH]c2ccccc12)c1ccc(Cl)cc1', '> 100 µM'),
  ('Cc1ccc(C(=O)NN=Cc2c[nH]c3ccc(Cl)cc23)cc1', '62.7 µM'),
  ('O=C(N/N=C/c1c[nH]c2ccc(Cl)cc12)c1ccc(Cl)cc1', '71.3 µM'),
  ('COc1ccc(NN=Cc2c[nH]c3ccccc23)cc1', '74.5 µM'),
  ('O=C(NN=Cc1c[nH]c2ccccc12)c1ccc([N+](=O)[O-])cc1', '> 100 µM'),
  ('Clc1ccccc1NN=Cc1c[nH]c2ccccc12', '45.9 µM'),
  ('O=C(NN=Cc1c[nH]c2ccc(Cl)cc12)c1ccc([N+](=O)[O-])cc1', '> 100 µM'),
  ('O=C(NN=Cc1c[nH]c2ccccc12)c1cccc(Cl)c1', '> 100 µM'),
  ('Cc1ccc(NN=Cc2c[nH]c3ccccc23)cc1', '> 100 µM'),
  ('Cc1cccc(C(=O)NN=Cc2c[nH]c3ccc(Cl)cc23)c1', '49.6 µM'),
  ('Cc1cccc(C(=O)NN=Cc2c[nH]c3ccccc23)c1', '> 100 µM'),
  ('Fc1ccc(N/N=C/c2c[nH]c3ccccc23)cc1', '> 100 µM'),
  ('O=C(NN=Cc1c[nH]c2ccccc12)c1ccccc1 [2a, Indole-3-carboxaldehyde benzoylhydrazone]', '> 100 µM'),
  ('O=C(NN=Cc1c[nH]c2ccc(Cl)cc12)c1ccncc1', '> 100 µM'),
  ('Cc1ccc(C(=O)NN=Cc2c[nH]c3ccccc23)cc1', '> 100 µM'),
  ('O=C(N/N=C/c1c[nH]c2ccccc12)c1ccncc1', '> 100 µM'),
  ('O=C(N/N=C/c1c[nH]c2ccc(Cl)cc12)c1ccccc1', '> 100 µM');

###

Recorded melting point values for a group of compounds are listed next.
assayMetric: melting point

INSERT INTO assay_data (compound, result) VALUES
  ('Clc1cccc(NN=Cc2c[nH]c3ccccc23)c1', '211 to 214 °C'),
  ('O=C(NN=Cc1c[nH]c2ccc(Cl)cc12)c1ccncc1', '> 270 °C'),
  ('Cc1ccc(C(=O)NN=Cc2c[nH]c3ccccc23)cc1', '> 270 °C'),
  ('Cc1ccccc1NN=Cc1c[nH]c2ccccc12', '176 to 178 °C'),
  ('Cc1cccc(C(=O)NN=Cc2c[nH]c3ccc(Cl)cc23)c1', '226 to 228 °C'),
  ('O=C(NN=Cc1c[nH]c2ccccc12)c1cccc(Cl)c1', '215 to 218 °C'),
  ('O=C(NN=Cc1c[nH]c2ccc(Cl)cc12)c1cccc(Cl)c1', '230 to 233 °C'),
  ('Cc1ccc(C(=O)NN=Cc2c[nH]c3ccc(Cl)cc23)cc1', '244 °C (dec.)'),
  ('O=C(NN=Cc1c[nH]c2ccccc12)c1ccc([N+](=O)[O-])cc1', '250 to 253 °C'),
  ('O=C(NN=Cc1c[nH]c2ccc(Cl)cc12)c1ccc([N+](=O)[O-])cc1', '> 270 °C'),
  ('Cc1cccc(C(=O)NN=Cc2c[nH]c3ccccc23)c1', '212 to 214 °C'),
  ('O=C(NN=Cc1c[nH]c2ccccc12)c1ccccc1 [2a, Indole-3-carboxaldehyde benzoylhydrazone]', '238 to 241 °C');

###

Test system: human platelet rich plasma (PRP), arachidonic acid-induced platelet aggregation
assayInfo: Arachidonic acid-induced platelet aggregation in human platelet rich plasma (Born turbidimetric method)
Format: cell-based
experimentalParameters: Platelet, inducer arachidonic acid 1.25 mg/mL, read-out: Antiplatelet aggregation activity, IC50, AA
pIC50: −log10 of the molar value.
The compounds listed here are annotated with their pIC50.
assayMetric: pIC50

INSERT INTO assay_data (compound, targetsystem, assaymetric, qualifieroperator, quantitativereadout) VALUES
  ('O=C(NN=Cc1c[nH]c2ccc(Cl)cc12)c1ccncc1', 'human platelet rich plasma (PRP), arachidonic acid-induced platelet aggregation', 'pIC50', '<', 4.00),
  ('COc1ccc2c(c1)c(CC(=O)O)c(C)n2C(=O)c1ccc(Cl)cc1 [Indometacin, reference compound]', 'human platelet rich plasma (PRP), arachidonic acid-induced platelet aggregation', 'pIC50', '=', 5.52),
  ('O=C(NN=Cc1c[nH]c2ccccc12)c1ccc(Cl)cc1', 'human platelet rich plasma (PRP), arachidonic acid-induced platelet aggregation', 'pIC50', '<', 4.00),
  ('O=C(NN=Cc1c[nH]c2ccccc12)c1ccccc1 [2a, Indole-3-carboxaldehyde benzoylhydrazone]', 'human platelet rich plasma (PRP), arachidonic acid-induced platelet aggregation', 'pIC50', '<', 4.00),
  ('Clc1ccccc1NN=Cc1c[nH]c2ccccc12', 'human platelet rich plasma (PRP), arachidonic acid-induced platelet aggregation', 'pIC50', '=', 4.84),
  ('COc1ccc(NN=Cc2c[nH]c3ccccc23)cc1', 'human platelet rich plasma (PRP), arachidonic acid-induced platelet aggregation', 'pIC50', '=', 5.15),
  ('Cc1cccc(C(=O)NN=Cc2c[nH]c3ccccc23)c1', 'human platelet rich plasma (PRP), arachidonic acid-induced platelet aggregation', 'pIC50', '<', 4.00),
  ('Cc1cccc(C(=O)NN=Cc2c[nH]c3ccc(Cl)cc23)c1', 'human platelet rich plasma (PRP), arachidonic acid-induced platelet aggregation', 'pIC50', '<', 4.00),
  ('Cc1ccccc1NN=Cc1c[nH]c2ccccc12', 'human platelet rich plasma (PRP), arachidonic acid-induced platelet aggregation', 'pIC50', '=', 4.25),
  ('Clc1cccc(NN=Cc2c[nH]c3ccccc23)c1', 'human platelet rich plasma (PRP), arachidonic acid-induced platelet aggregation', 'pIC50', '=', 4.55),
  ('O=C(NN=Cc1c[nH]c2ccccc12)c1ccc([N+](=O)[O-])cc1', 'human platelet rich plasma (PRP), arachidonic acid-induced platelet aggregation', 'pIC50', '<', 4.00),
  ('Fc1ccc(N/N=C/c2c[nH]c3ccccc23)cc1', 'human platelet rich plasma (PRP), arachidonic acid-induced platelet aggregation', 'pIC50', '=', 4.54);

###

System: human platelet rich plasma (PRP), arachidonic acid-induced platelet aggregation
assayInfo: Arachidonic acid-induced platelet aggregation in human platelet rich plasma (Born turbidimetric method)
Type: cell-based
experimentalParameters: Platelet, inducer arachidonic acid 1.25 mg/mL, read-out: Antiplatelet aggregation activity, IC50, AA
Examples of compounds with documented IC50 follow.
assayMetric: IC50

INSERT INTO assay_data (compound, result) VALUES
  ('O=C(NN=Cc1c[nH]c2ccccc12)c1cccc(Cl)c1', '> 100 µM'),
  ('Cc1ccc(C(=O)NN=Cc2c[nH]c3ccccc23)cc1', '> 100 µM'),
  ('Clc1ccc(N/N=C/c2c[nH]c3ccccc23)cc1', '22.5 µM'),
  ('CC(=O)Oc1ccccc1C(=O)O [Aspirin, reference compound]', '30.3 µM'),
  ('O=C(NN=Cc1c[nH]c2ccc(Cl)cc12)c1cccc(Cl)c1', '> 100 µM'),
  ('Cc1ccc(NN=Cc2c[nH]c3ccccc23)cc1', '57.2 µM'),
  ('O=C(NN=Cc1c[nH]c2ccc(Cl)cc12)c1ccc([N+](=O)[O-])cc1', '> 100 µM'),
  ('Brc1ccc(N/N=C/c2c[nH]c3ccccc23)cc1', '21.2 µM'),
  ('Cc1ccc(C(=O)NN=Cc2c[nH]c3ccc(Cl)cc23)cc1', '> 100 µM'),
  ('O=C(N/N=C/c1c[nH]c2ccc(Cl)cc12)c1ccccc1', '> 100 µM'),
  ('O=C(N/N=C/c1c[nH]c2ccc(Cl)cc12)c1ccc(Cl)cc1', '> 100 µM');
